target: Histidine--tRNA ligase (Leishmania infantum); experiment: Leishmania infantum Histidine tRNA synthetase (LdHisRS); assay type: functional; set-up: scale not given: in the data most compounds retested in dose-response had high values; settings: 30 µM
Among all 69,000 compounds or so, about 420 (0.61%) showed an effect of 50% or more. Many of the other results were omitted from the sample, so strong results are more common in it than they were.
Would you mind telling me the reported Percent Effect of each entry?
Entry rule: numbers only, all in %.

Field Percent Effect (Histidine--tRNA ligase (Leishmania infantum)), entry CCC1CN(CCNC(C)=O)CCN1CCOC (configuration not stated) : 4.76

Field Percent Effect (Histidine--tRNA ligase (Leishmania infantum)), entry CCn1nnc2c1C(COCC(=O)N(C)C)CN(Cc1ccco1)C2 (configuration not stated) : 50.9

Field Percent Effect (Histidine--tRNA ligase (Leishmania infantum)), entry CC(C)CN1C[C@H]2CCN(C(=O)C3CCCO3)CC[C@H]2S1(=O)=O (some centres not stated) : 13.8

Field Percent Effect (Histidine--tRNA ligase (Leishmania infantum)), entry CCn1nnc2c1C(COCC(=O)N(C)C)CN(Cc1ccoc1)C2 (configuration not stated) : 5.66

Field Percent Effect (Histidine--tRNA ligase (Leishmania infantum)), entry CCC1CN(CCC(=O)N(C)C)CCN1CCOC (configuration not stated) : 50

Field Percent Effect (Histidine--tRNA ligase (Leishmania infantum)), entry CCC1CN(CC(=O)N2CCC2)CCN1CCOC (configuration not stated) : 28.6

Field Percent Effect (Histidine--tRNA ligase (Leishmania infantum)), entry CCn1nnc2c1C(COC)CN(Cc1cccs1)C2 (configuration not stated) : 13.5

---

target: Histidine--tRNA ligase (Leishmania infantum); assay: Leishmania infantum Histidine tRNA synthetase (LdHisRS); assay type: functional; parameters: scale not given: in the data most compounds retested in dose-response had high values; details: 30 µM
Hit rate of the full screen: of about 69,000 compounds, about 420 (0.61%) showed an effect of 50% or more. What follows is part of a selection rich in strong results, with near analogues and random picks from the rest.
Would you mind telling me the reported Percent Effect of each entry?
Entry rule: numbers only, all in %.

Percent Effect recorded for this compound, "Cc1nccn1-c1ccc(NS(=O)(=O)c2cccnc2)cn1" , is 33.7

Percent Effect recorded for this compound, "O=C(c1cncc(N2CC[C@@]3(O)CCNC[C@H]3C2)n1)N1CCCC1" , is 0

Percent Effect recorded for this compound, "O=C(NCC1CC1)[C@@H]1CCO[C@@H]2CCN(CCc3ccccc3)C[C@H]21" , is 13.7

Percent Effect recorded for this compound, "O=C(O)[C@@]12CN(c3cnccn3)C[C@@H]1CN(C1CCCC1)C2" , is 21

Percent Effect recorded for this compound, "O=S(=O)(C1CC1)N1CCO[C@H]2[C@H](OCC3CC3)CC[C@@H]21" , is 5.56

Percent Effect recorded for this compound, "CO[C@@H]1CC[C@H]2[C@H]1OCCN2Cc1ccc(F)c(F)c1" , is 8.33

Percent Effect recorded for this compound, "Cc1n[nH]c(C)c1CN1CC[C@@H]2[C@@H](CCC(=O)N2CCc2c[nH]cn2)C1" , is 19.4

Percent Effect recorded for this compound, "O=C1O[C@@H]2CN(Cc3cc4ccccc4o3)C[C@@H]2N1Cc1ccccn1" , is 0

Percent Effect recorded for this compound, "Cc1nnc(N2C[C@H](OCc3cccnc3)[C@H]3OCCC[C@H]32)s1" , is 24.3

Percent Effect recorded for this compound, "CCCS(=O)(=O)N1CCO[C@H]2[C@@H](Oc3cccnc3)CC[C@@H]21" , is 16.4

---

Target: Histidine--tRNA ligase (Leishmania infantum) (UniProt A4I591)
Sequence (whole entry): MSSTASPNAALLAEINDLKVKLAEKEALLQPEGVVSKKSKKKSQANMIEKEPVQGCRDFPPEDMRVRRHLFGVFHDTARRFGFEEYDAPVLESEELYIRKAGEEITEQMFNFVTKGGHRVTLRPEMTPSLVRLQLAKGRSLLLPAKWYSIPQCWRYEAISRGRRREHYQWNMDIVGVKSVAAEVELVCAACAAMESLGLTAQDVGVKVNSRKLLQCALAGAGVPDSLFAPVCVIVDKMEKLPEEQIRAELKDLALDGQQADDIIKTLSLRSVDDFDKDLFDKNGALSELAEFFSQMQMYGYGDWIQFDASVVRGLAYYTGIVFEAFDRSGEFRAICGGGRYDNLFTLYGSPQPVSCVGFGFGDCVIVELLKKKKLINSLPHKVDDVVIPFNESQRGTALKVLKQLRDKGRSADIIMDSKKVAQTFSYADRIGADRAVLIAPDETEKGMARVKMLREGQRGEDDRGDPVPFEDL
Experiment: Leishmania infantum Histidine tRNA synthetase (LdHisRS)
Assay type: functional
Design: scale not given: in the data most compounds retested in dose-response had high values
Settings: 30 µM
The campaign covered roughly 69,000 compounds. About 420 (0.61%) showed an effect of 50% or more. Only a selection was taken, and strong results are over-represented in it overall.
We label by threshold. Values of Percent Effect strictly beneath 10% are True. Values of 10% and up are False.

Given "CN(C)CCN1CCO[C@@H]2CCN(C(=O)c3cccn3C)CC[C@H]21" , is recorded Percent Effect strictly lower than 10%?
False

Given "O=C(c1ccnnc1)N1C[C@@H](OCC2CCOCC2)[C@H]2OCCC[C@H]21" , is recorded Percent Effect strictly lower than 10%?
False

Given "CN(C)CCN1CCCC12CCN(C(=O)c1cccn1C)CC2" , is recorded Percent Effect strictly lower than 10%?
True

Given "CC(C)c1nnc(N2C[C@@H]3CC[C@H](C2)N(Cc2ccccc2)C3)s1" , is recorded Percent Effect strictly lower than 10%?
False

Given c1cnnc(N2CCCC(NCc3nc(-c4ccco4)no3)C2)c1 (stereo not drawn) , is recorded Percent Effect strictly lower than 10%?
True

Given c1ccc(-c2noc(CNC3CCCN(c4cccnn4)C3)n2)nc1 (stereo not drawn) , is recorded Percent Effect strictly lower than 10%?
False

Given "Cc1noc(C)c1CN1CCO[C@H]2CN(C(=O)C3CCOCC3)C[C@H]21" , is recorded Percent Effect strictly lower than 10%?
True

Given "COc1ccccc1CN1C(=O)O[C@@H]2CN(C(C)C)C[C@@H]21" , is recorded Percent Effect strictly lower than 10%?
True

---

target: Histidine--tRNA ligase (Leishmania infantum); test: Leishmania infantum Histidine tRNA synthetase (LdHisRS); type: functional; design: scale not given: in the data most compounds retested in dose-response had high values; details: 30 µM
Out of some 69,000 compounds screened, about 420 (0.61%) showed an effect of 50% or more. The sample as a whole holds a higher share of strong results than the screen did.
test-readout: Percent Effect (%)
Entry rule: numbers only, all in %.

Field Percent Effect (Histidine--tRNA ligase (Leishmania infantum)), entry "CCn1ncc(CN2C[C@@H]3CCCN3C[C@H]2CCSC)c1C" : -58

Field Percent Effect (Histidine--tRNA ligase (Leishmania infantum)), entry "Cc1cc(C(=O)Nc2cccn(Cc3ccc(F)cc3)c2=O)no1" : 20.4

Field Percent Effect (Histidine--tRNA ligase (Leishmania infantum)), entry "Cc1nc(CN2CCO[C@H]3CN(C(=O)c4cccn4C)C[C@H]32)cs1" : 10.5

Field Percent Effect (Histidine--tRNA ligase (Leishmania infantum)), entry "CC(=O)Nc1ccc(CN(C)Cc2snnc2C)cc1" : 16.3

Field Percent Effect (Histidine--tRNA ligase (Leishmania infantum)), entry "Cc1cc(C(=O)Nc2cccn(Cc3ccccc3)c2=O)no1" : 23.9

Field Percent Effect (Histidine--tRNA ligase (Leishmania infantum)), entry "O=C(Nc1cccn(Cc2ccc(F)cc2)c1=O)c1cnc[nH]1" : 27.4

Field Percent Effect (Histidine--tRNA ligase (Leishmania infantum)), entry "CC(=O)N1[C@H](CN(C)C)C[C@@H]2CN(c3ncc(F)cn3)CC[C@@H]21" : 14.5

Field Percent Effect (Histidine--tRNA ligase (Leishmania infantum)), entry "O=C(Nc1cccn(CC(F)(F)F)c1=O)c1ccncc1F" : 17.1

---

molecular target: Histidine--tRNA ligase (Leishmania infantum) (UniProt A4I591); experiment: Leishmania infantum Histidine tRNA synthetase (LdHisRS); assay type: functional; design: scale not given: in the data most compounds retested in dose-response had high values; details: 30 µM
Screen size: about 69,000 compounds; about 420 (0.61%) showed an effect of 50% or more. The entries come from a sample that favours strong results as a whole.
test-readout: Percent Effect

Percent Effect recorded for this compound, "Cc1ncsc1CN1C[C@@H]2COC[C@]2(C(=O)NC2CC(F)(F)C2)C1" , is 20%

Percent Effect recorded for this compound, "CN(C)CCN1CCO[C@@H]2CN(C(=O)Cc3ccsc3)CC[C@@H]2C1" , is 10%

Percent Effect recorded for this compound, "CNC(=O)CN1CC[C@H]2CN(C(=O)c3ccc(C)cc3)C[C@H]2C1" , is 9.72%

---

Would you mind telling me the reported Percent Effect of each entry?
target: Histidine--tRNA ligase (Leishmania infantum); experiment: Leishmania infantum Histidine tRNA synthetase (LdHisRS); assay type: functional; design: scale not given: in the data most compounds retested in dose-response had high values; conditions: 30 µM
About 420 (0.61%) of roughly 69,000 compounds showed an effect of 50% or more. What follows is part of a selection rich in strong results, with near analogues and random picks from the rest.
Entry rule: numbers only, all in %.

Percent Effect recorded for this compound, "Cc1cc2nc(SCC(=O)N3CCCCC3)n(C)c(=O)c2[nH]1" , is 10.5

Percent Effect recorded for this compound, "c1cnc(N2CCO[C@H]3[C@H](OCC4CC4)CC[C@@H]32)nc1" , is 8.11

Percent Effect recorded for this compound, "Nc1cccnc1N1CCCCCC1" , is 58.3

Percent Effect recorded for this compound, O=C(c1cscn1)N1CC[C@@H]2[C@@H]1CCN2CC1CCOC1 (some centres undefined) , is 13.2

Percent Effect recorded for this compound, "Nc1cccnc1N1CCN(c2ccccc2)CC1" , is 8.33

Percent Effect recorded for this compound, "O=C1CC[C@]2(CC[C@@H](NC3CCOCC3)CC2)N1Cc1ccccc1" , is 7.77

Percent Effect recorded for this compound, CC(=O)N(Cc1noc(C)n1)C1CCN(Cc2ccccc2C#N)C1 (centres undefined) , is 2.7

Percent Effect recorded for this compound, CC(=O)N1CCCCC1c1nnc2n1CCNC2 (centres undefined) , is 2.76

Percent Effect recorded for this compound, "COCCC(=O)N1CC[C@@H]2O[C@@H](C)C[C@H]2C1" , is 15.3

Origin of values: ChEMBL document CHEMBL3988442
